- TARGET_ENTITY: Inadl_8, Q8NI35
- Sequence (Q8NI35 1425-1530): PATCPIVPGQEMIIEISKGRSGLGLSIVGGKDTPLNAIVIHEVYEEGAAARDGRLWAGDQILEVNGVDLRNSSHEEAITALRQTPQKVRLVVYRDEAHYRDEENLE
- ASSAY_TEXT: holdup assay
- Set-up: key: below the threshold = too weak to quantify, mostly under pKd 3.1 to 4
- ASSAY_SETUP: plain residues with an end cap or a label only (N-terminal biotin on a linker: ttds)
QUANTITY_NAME: pKd

Previously resolved entries follow.
BINDER	pKd
QRPYRRESEI [KCNJ12, Q14500]	below the threshold
FVETQHQTQV [FAT3, Q8TDW7]	below the threshold
KLVIKTETTV [RASSF6, Q6ZTQ3]	below the threshold
PSRDRKETSI [RALBP1, Q15311]	below the threshold
KQVVPFSSSV [GDA, Q9Y2T3]	4.89

Please look at the items below and tell me pKd for each one, in order.
1. SRSRRRETAL [HPV33-E6, P06427]
2. DLDEEEDTHL [PODXL, O00592]
3. PPRQRSETQV [HPV82-E6, Q9IR59]

["below the threshold", "below the threshold", "below the threshold"]

Please look at the items below and tell me pKd for each one, in order.
1. SGGKRKETLV [NET1, Q7Z628]
2. PFRSRSPSEV [GPR6, P46095]
3. SHSSKGETAV [FZD7, O75084]

1: 3.63; 2: 4.04; 3: below the threshold

Please look at the items below and tell me pKd for each one, in order.
1. GARVSKETPL [MAPK12, P53778]
2. SSIDLWETAL [SLC15A5, A6NIM6]
3. NPDALPETLV [ARHGAP6, O43182]
4. GRLLGLETNV [ARHGEF26, Q96DR7]

below the threshold
below the threshold
below the threshold
below the threshold
